Where these numbers come from: PubChem BioAssay AID1963847

# Test system: 415267-285-R-J2-PDC complex spheroid viability
# assayProcedure: Anticancer human tumor 415267-285-R-J2-PDC patient-derived breast carcinoma cell line growth inhibition [POLQ]
# testParameters: second compound 3.16 µM; first compound 10 µM; stronger effect = lower value
Classify: y when viability, T/C is strictly less than 40%; n when viability, T/C is not.

[
  {
    "molecule": "CNCc1ccc(-c2[nH]c3cc(F)cc4c3c2CCNC4=O)cc1 + COC1C(OC(N)=O)C(O)C(Oc2ccc3c(O)c(NC(=O)c4ccc(O)c(CC=C(C)C)c4)c(=O)oc3c2C)OC1(C)C",
    "assignedLabel": "n"
  },
  {
    "molecule": "C#Cc1c(F)ccc2cc(O)cc(-c3ncc4c(N5CC6CCC(C5)N6)nc(OCC56CCCN5CC(F)C6)nc4c3F)c12 (centres undefined) + Nc1ccc(C#CCN(C(=O)Cc2ncc(C(F)(F)F)cc2C(F)(F)F)c2ccc(F)cc2)nn1",
    "assignedLabel": "n"
  },
  {
    "molecule": "CC1COCCN1c1cc(-c2ccnn2C)c2ccnc(-c3ccn[nH]3)c2n1 (centres undefined) + COC1C(OC(N)=O)C(O)C(Oc2ccc3c(O)c(NC(=O)c4ccc(O)c(CC=C(C)C)c4)c(=O)oc3c2C)OC1(C)C",
    "assignedLabel": "y"
  },
  {
    "molecule": "CCc1cc2c(N3CCc4c(cc(Cn5ccnc5)cc4-c4cn(C)nc4C(F)(F)F)C3=O)cc(C)nc2c(OC)n1 + Nc1ccc(C#CCN(C(=O)Cc2ncc(C(F)(F)F)cc2C(F)(F)F)c2ccc(F)cc2)nn1",
    "assignedLabel": "n"
  },
  {
    "molecule": "COc1cccc2c1C(=O)c1c(O)c3c(c(O)c1C2=O)CC(O)(C(=O)CO)CC3OC1CC(N)C(O)C(C)O1 (centres undefined) + COC1C(OC(N)=O)C(O)C(Oc2ccc3c(O)c(NC(=O)c4ccc(O)c(CC=C(C)C)c4)c(=O)oc3c2C)OC1(C)C",
    "assignedLabel": "y"
  },
  {
    "molecule": "CC1COCCN1c1cc(C2(O)CC3CCC(C2)O3)c2cnn(-c3ccn[nH]3)c2n1 (centres undefined) + Nc1ccc(C#CCN(C(=O)Cc2ncc(C(F)(F)F)cc2C(F)(F)F)c2ccc(F)cc2)nn1",
    "assignedLabel": "y"
  },
  {
    "molecule": "CCc1cc2c(N3CCc4c(cc(Cn5ccnc5)cc4-c4cn(C)nc4C(F)(F)F)C3=O)cc(C)nc2c(OC)n1 + COC1C(OC(N)=O)C(O)C(Oc2ccc3c(O)c(NC(=O)c4ccc(O)c(CC=C(C)C)c4)c(=O)oc3c2C)OC1(C)C",
    "assignedLabel": "n"
  },
  {
    "molecule": "COc1cccc2c1C(=O)c1c(O)c3c(c(O)c1C2=O)CC(O)(C(=O)CO)CC3OC1CC(N)C(O)C(C)O1 (centres undefined) + Cc1cccc(N(C)C(=O)C2C(O)CCN2c2nc(C)cc(C(F)(F)F)c2C#N)c1",
    "assignedLabel": "y"
  }
]

----------
# Test system: 415267-285-R-J2-PDC complex spheroid viability
# assayProcedure: Anticancer human tumor 415267-285-R-J2-PDC cell line growth inhibition [POLQ]; active = viability on the fitted dose curve at most 10% of control; inactive = the rest;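 further: spheroids exposed to compounds for one week before readout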
# testParameters: second compound 1 µM; first compound 0.316 µM
Outcomes: active, inactive

[
  {
    "compound": "CC1COCCN1c1cc(C2(S(C)(=N)=O)CC2)nc(-c2ccnc3[nH]ccc23)n1 (stereo not given) + Cc1cccc(N(C)C(=O)C2C(O)CCN2c2nc(C)cc(C(F)(F)F)c2C#N)c1",
    "assignedLabel": "inactive"
  },
  {
    "compound": "CCc1cc2c(N3CCc4c(cc(Cn5ccnc5)cc4-c4cn(C)nc4C(F)(F)F)C3=O)ccnc2c(OC)n1 + Nc1ccc(C#CCN(C(=O)Cc2ncc(C(F)(F)F)cc2C(F)(F)F)c2ccc(F)cc2)nn1",
    "assignedLabel": "inactive"
  },
  {
    "compound": "CCc1c2c(nc3ccc(O)cc13)-c1cc3c(c(=O)n1C2)COC(=O)[C@]3(O)CC + Nc1ccc(C#CCN(C(=O)Cc2ncc(C(F)(F)F)cc2C(F)(F)F)c2ccc(F)cc2)nn1",
    "assignedLabel": "active"
  },
  {
    "compound": "C#Cc1c(F)ccc2cc(O)cc(-c3ncc4c(N5CC6CCC(C5)N6)nc(OCC56CCCN5CC(F)C6)nc4c3F)c12 (stereo not given) + Cc1cccc(N(C)C(=O)C2C(O)CCN2c2nc(C)cc(C(F)(F)F)c2C#N)c1",
    "assignedLabel": "inactive"
  },
  {
    "compound": "CC1COCCN1c1cc(-c2ccnn2C)c2ccnc(-c3ccn[nH]3)c2n1 (stereo not given) + COC1C(OC(N)=O)C(O)C(Oc2ccc3c(O)c(NC(=O)c4ccc(O)c(CC=C(C)C)c4)c(=O)oc3c2C)OC1(C)C",
    "assignedLabel": "active"
  },
  {
    "compound": "C=CCn1c(=O)c2cnc(Nc3ccc(N4CCN(C)CC4)cc3)nc2n1-c1cccc(C(C)(C)O)n1 + COC1C(OC(N)=O)C(O)C(Oc2ccc3c(O)c(NC(=O)c4ccc(O)c(CC=C(C)C)c4)c(=O)oc3c2C)OC1(C)C",
    "assignedLabel": "inactive"
  },
  {
    "compound": "C=CC(=O)N1CCN(c2nc(=O)n(-c3c(C)ccnc3C(C)C)c3nc(-c4c(O)cccc4F)c(F)cc23)C(C)C1 (stereo not given) + Nc1ccc(C#CCN(C(=O)Cc2ncc(C(F)(F)F)cc2C(F)(F)F)c2ccc(F)cc2)nn1",
    "assignedLabel": "inactive"
  },
  {
    "compound": "O=C(Nc1ccc(O)c(NS(=O)(=O)c2ccc(F)cc2)c1)c1ccc(-c2ccccc2)cc1 + COC1C(OC(N)=O)C(O)C(Oc2ccc3c(O)c(NC(=O)c4ccc(O)c(CC=C(C)C)c4)c(=O)oc3c2C)OC1(C)C",
    "assignedLabel": "inactive"
  },
  {
    "compound": "C=CC(=O)N1CCN(c2nc(=O)n(-c3c(C)ccnc3C(C)C)c3nc(-c4c(O)cccc4F)c(F)cc23)C(C)C1 (stereo not given) + COC1C(OC(N)=O)C(O)C(Oc2ccc3c(O)c(NC(=O)c4ccc(O)c(CC=C(C)C)c4)c(=O)oc3c2C)OC1(C)C",
    "assignedLabel": "inactive"
  },
  {
    "compound": "CNCc1ccc(-c2[nH]c3cc(F)cc4c3c2CCNC4=O)cc1 + Cc1cccc(N(C)C(=O)C2C(O)CCN2c2nc(C)cc(C(F)(F)F)c2C#N)c1",
    "assignedLabel": "inactive"
  }
]

----------
# System: 415267-285-R-J2-PDC complex spheroid viability
# assayProcedure: Anticancer human tumor 415267-285-R-J2-PDC cell line growth inhibition [POLQ];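 further: spheroids exposed to compounds for one week before readout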
# testParameters: curve of first compound; second compound 0.316 µM

[
  {
    "molecule": "Cn1ncnc1[C@H]1c2n[nH]c(=O)c3cc(F)cc(c23)N[C@@H]1c1ccc(F)cc1 + COC1C(OC(N)=O)C(O)C(Oc2ccc3c(O)c(NC(=O)c4ccc(O)c(CC=C(C)C)c4)c(=O)oc3c2C)OC1(C)C",
    "IC50": "> 0.1 µM"
  },
  {
    "molecule": "CC1COCCN1c1cc(-c2ccnn2C)c2ccnc(-c3ccn[nH]3)c2n1 (stereo not drawn) + COC1C(OC(N)=O)C(O)C(Oc2ccc3c(O)c(NC(=O)c4ccc(O)c(CC=C(C)C)c4)c(=O)oc3c2C)OC1(C)C",
    "IC50": "< 0.0316 µM"
  },
  {
    "molecule": "O=C(c1cc(Cc2n[nH]c(=O)c3ccccc23)ccc1F)N1CCN(C(=O)C2CC2)CC1 + Nc1ccc(C#CCN(C(=O)Cc2ncc(C(F)(F)F)cc2C(F)(F)F)c2ccc(F)cc2)nn1",
    "IC50": "> 10 µM"
  }
]

----------
# Tested on: 415267-285-R-J2-PDC complex spheroid viability
# assayProcedure: Anticancer human tumor 415267-285-R-J2-PDC cell line growth inhibition [POLQ];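 further: spheroids exposed to compounds for one week before readout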;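 on viability, T/C: luminescence used as stand-in measure of viable cells; 100% = DMSO vehicle control viability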
# testParameters: second compound 10 µM; first compound 0.00316 µM; stronger effect = lower value

[
  {
    "molecule": "COc1cccc(OCCCN)c1-c1cc(Nc2cnc(C#N)cn2)n[nH]1 + Cc1cccc(N(C)C(=O)C2C(O)CCN2c2nc(C)cc(C(F)(F)F)c2C#N)c1",
    "systemTested": "415267-285-R-J2-PDC complex spheroid viability",
    "viability, T/C [%]": 94.3
  },
  {
    "molecule": "CCc1c2c(nc3ccc(O)cc13)-c1cc3c(c(=O)n1C2)COC(=O)[C@]3(O)CC + Nc1ccc(C#CCN(C(=O)Cc2ncc(C(F)(F)F)cc2C(F)(F)F)c2ccc(F)cc2)nn1",
    "systemTested": "415267-285-R-J2-PDC complex spheroid viability",
    "viability, T/C [%]": 32.5
  },
  {
    "molecule": "COc1cccc(OCCCN)c1-c1cc(Nc2cnc(C#N)cn2)n[nH]1 + Nc1ccc(C#CCN(C(=O)Cc2ncc(C(F)(F)F)cc2C(F)(F)F)c2ccc(F)cc2)nn1",
    "systemTested": "415267-285-R-J2-PDC complex spheroid viability",
    "viability, T/C [%]": 100
  },
  {
    "molecule": "C=CCn1c(=O)c2cnc(Nc3ccc(N4CCN(C)CC4)cc3)nc2n1-c1cccc(C(C)(C)O)n1 + COC1C(OC(N)=O)C(O)C(Oc2ccc3c(O)c(NC(=O)c4ccc(O)c(CC=C(C)C)c4)c(=O)oc3c2C)OC1(C)C",
    "systemTested": "415267-285-R-J2-PDC complex spheroid viability",
    "viability, T/C [%]": 112
  },
  {
    "molecule": "CCc1c2c(nc3ccc(O)cc13)-c1cc3c(c(=O)n1C2)COC(=O)[C@]3(O)CC + Cc1cccc(N(C)C(=O)C2C(O)CCN2c2nc(C)cc(C(F)(F)F)c2C#N)c1",
    "systemTested": "415267-285-R-J2-PDC complex spheroid viability",
    "viability, T/C [%]": 29.4
  }
]
